- tested_target: fusion glycoprotein of the RSV used in the neutralization assay of Example 1 (respiratory syncytial virus (strain not stated))
- assay_protocol: cell-based or functional assay
reported_metric: RSV Neutralization - IC50 (ng/mL)
One number for each entry, in ng/mL.

# count of solved cases: 3
| binder | RSV Neutralization - IC50 [ng/mL] |
| --- | --- |
| MPK174-v2 (antibody, V domains shown) VH: EVQLVESGGGLVKPGGSLRLSCAASRFKFGDYYMSWIRQAPGKGLEWVSNISPSSSYTNYADSVKGRFTISRDNAKNLLYLQMNSLRAEDTAVYYCARESCSGGSCSLHGMDVWGQGTTVTVAS VL: QSVLTQPPSVSGAPGQRVTISCTGSSSNIGAGYDVHWYQQLPGTAPKLLIYDNSNRPSGVPDRFSGSKSGTSASLAITGLRAEDDADYYCQSYDRSLGGSIFGGGTKLTVL | 13.6 |
| MPK180 (antibody, V domains shown) VH: QVQLVQSGAEVKKPGESLRISCKASGYSFASYWIGWVRQKPGKGPEWMGIIFPNDSDTEYSPSFEGQVSISADKSTSTVHLQWGSLKASDTAVYYCGRMYYLGALETWGQGTMVTVSS VL: AIRMTQSPSSLSASVGDRVTIVCQASHDISNFLNWYQQRPGQAPKLLIYDASFLETGVPSRFSGSGSGTYFTLTISSLQPEDFATYYCQRYDNRFFTFGPGTKVDIK | 1.5 |
| MPK149 (antibody, V domains shown) VH: QVQLVESGGGLVKPGGSLRLSCEASGFTISGYFMIWIRQAPGKGLEWISSISGSSTYTDYAESVKGRFTISRDNGRSTLYLQMNSLRVEDTAVYYCATEQTPSPGPFDLWGQGTLVTVSS VL: QSVVTQPPSVSGAPGQRVTISCTGTSSNIGAGYDVHWYQQFPGTSPRLLINRNTNRPSGVPDRFSGSQSGSSASLAIAGLQAEDEADYYCQSYDRSVSGWVFGGGTKLTVL | 33.5 |

Could you now consider this next binder?
Record summary for MPK194-v2 (antibody, V domains shown) VH: QVQLVESGGGVVQPGRSLRLSCVASGFTFSNYPLHWVRQAPGKGLQWVAVISYDGSENYYADSVKGRFTISRDNSKSTLYLQMNSLRPEDTAIYYCARSKVAGGSYYFDYWGQGTLVPVSS VL: SYELTQPPSVSVAPGQAARVSCGGNNIGSQYVQWYQQKPGQAPVLVIYDDDDRPSGIPERFSGSNSGSTATLTISRVEAGDEADYYCQVWDKSNHVVVFGGGTKLTVL : reported RSV Neutralization - IC50 = 2.6
